Entry source: paper PMC8640019

- Assayed target: CIS-Elo B/C + F3 (human), Q9NSE2
- Assay info: SPR
- Condition details: remark: other sources report otherwise
Experimental readout: pIC50
# reply with the number alone; pIC50 is -log10 of concentration in mol/L

Give the reported value of pIC50 for this record: PVPDYTSIHIV (here or on the partner: phosphotyrosine at 595) [GHR pY595 peptide] 5.37
